Target: T1, exemplary TAT frataxin fusion molecule (HIV-1, UniProt Q16595 1-210)
T1 construct: in the bridging assays biotinylated and sulfotagged forms were used; also called TAT-FXN fusion molecule; TAT FXN fusion molecule
T1 sequence: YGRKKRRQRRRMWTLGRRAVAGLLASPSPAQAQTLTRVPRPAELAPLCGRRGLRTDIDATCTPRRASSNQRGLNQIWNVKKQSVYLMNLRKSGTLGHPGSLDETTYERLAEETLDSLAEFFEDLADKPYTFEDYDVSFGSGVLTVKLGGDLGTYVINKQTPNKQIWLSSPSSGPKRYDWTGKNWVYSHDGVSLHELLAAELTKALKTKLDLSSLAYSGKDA
Assay: PK sandwich ELISA in human plasma, antibody as capture, HRP anti-frataxin mAb detection
In this section, each of the binders is paired with its reported Mean OD at plasma conc. 0.400 ng/mL.
Answer in OD, number only, no unit symbol.

Consider the reported Mean OD at plasma conc. 0.400 ng/mL for these binders:
binder	unitsSymbol	measuredNumber
antibody 10-4 (antibody, V domains shown, Rabbit monoclonal) VH: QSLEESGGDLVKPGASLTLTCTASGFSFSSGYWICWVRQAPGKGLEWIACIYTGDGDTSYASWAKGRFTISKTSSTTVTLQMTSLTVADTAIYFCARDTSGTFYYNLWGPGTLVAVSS VL: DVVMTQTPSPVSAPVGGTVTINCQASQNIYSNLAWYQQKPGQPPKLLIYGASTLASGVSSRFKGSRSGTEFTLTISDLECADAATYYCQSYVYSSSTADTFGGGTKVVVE	OD	0.076
antibody 10-1 (antibody, V domains shown, Rabbit monoclonal) VH: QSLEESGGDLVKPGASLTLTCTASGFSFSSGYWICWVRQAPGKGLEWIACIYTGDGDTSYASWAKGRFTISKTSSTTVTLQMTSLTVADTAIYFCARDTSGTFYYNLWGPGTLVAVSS VL: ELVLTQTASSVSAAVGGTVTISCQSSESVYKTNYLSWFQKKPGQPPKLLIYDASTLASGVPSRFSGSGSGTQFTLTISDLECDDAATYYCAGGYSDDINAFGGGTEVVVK	OD	0.07
antibody 10-9 (antibody, V domains shown, Rabbit monoclonal) VH: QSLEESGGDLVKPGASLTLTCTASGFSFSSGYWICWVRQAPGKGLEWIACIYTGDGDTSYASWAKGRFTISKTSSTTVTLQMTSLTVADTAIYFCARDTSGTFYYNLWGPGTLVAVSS VL: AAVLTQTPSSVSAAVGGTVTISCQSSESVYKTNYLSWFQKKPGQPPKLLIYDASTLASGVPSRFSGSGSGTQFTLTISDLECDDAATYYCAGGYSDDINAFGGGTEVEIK	OD	0.077

Data request: What value of measured Mean OD at plasma conc. 0.400 ng/mL is listed for antibody 10-12 (antibody, V domains shown, Rabbit monoclonal) VH: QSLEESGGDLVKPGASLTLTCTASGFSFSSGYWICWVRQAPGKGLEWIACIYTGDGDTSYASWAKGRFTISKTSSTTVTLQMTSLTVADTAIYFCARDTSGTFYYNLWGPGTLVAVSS VL: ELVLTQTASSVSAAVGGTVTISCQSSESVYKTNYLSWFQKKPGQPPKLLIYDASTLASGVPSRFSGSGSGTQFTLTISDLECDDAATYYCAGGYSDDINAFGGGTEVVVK ?
Data returned: 0.073

Data provenance is patent US20230061973A1.
